Numbers sourced from ChEMBL document CHEMBL4052731.

Listing of entries alongside the reported pIC50.
MEASURED_ON: UniProt:Q02127
Sequence (Q02127 whole entry, the tested form may be a part): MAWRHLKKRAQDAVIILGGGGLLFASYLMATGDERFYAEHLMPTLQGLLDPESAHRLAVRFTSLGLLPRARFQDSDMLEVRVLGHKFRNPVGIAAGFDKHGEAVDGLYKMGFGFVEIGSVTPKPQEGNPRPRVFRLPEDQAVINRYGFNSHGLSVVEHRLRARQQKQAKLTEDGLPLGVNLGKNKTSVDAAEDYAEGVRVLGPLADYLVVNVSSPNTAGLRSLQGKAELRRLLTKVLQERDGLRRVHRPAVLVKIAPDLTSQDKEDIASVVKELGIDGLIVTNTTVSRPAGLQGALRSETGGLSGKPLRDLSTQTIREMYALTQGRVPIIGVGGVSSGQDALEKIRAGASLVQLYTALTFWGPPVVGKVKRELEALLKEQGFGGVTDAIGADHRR
PROTOCOL_NOTES: Inhibition of homologous location truncated N-terminal His-tagged human DHODH expressed in Escherichia coli pyrD Sphi6745 by spectrophotometric analysis
pIC50: −log10 of the molar value.

SMILES	ASSAY_VALUE
CCOC(=O)/C(=C\Nc1ccc2sc3ccccc3c2c1)[N+](=O)[O-]	< 4.00

With those in mind, consider the next compound.
// query Answer with pIC50 of `CCOC(=O)/C(=C/Nc1ccc2c(c1)c1ccccc1n2CC)[N+](=O)[O-]` measured for UniProt:Q02127.
// result < 4.00

###

PROTOCOL_NOTES: Inhibition of homologous location truncated N-terminal His-tagged Plasmodium falciparum DHODH expressed in Escherichia coli pyrD Sphi6745 by spectrophotometric analysis
REPORTED_PROPERTY: pIC50
Worth noting: pIC50 values are minus log10 of concentrations stated in mol/L.

Please review the entries below; each comes with its answer.
SMILES	pIC50
CCOC(=O)/C(C#N)=C\Nc1ccc2sc3ccccc3c2c1	5.92
CCOC(=O)C(=CNc1ccc2sc3ccccc3c2c1)C(=O)OCC	6.80
CCOC(=O)/C(=C\Nc1ccc2sc3ccccc3c2c1)[N+](=O)[O-]	6.42

// query Please look at this molecule and report its pIC50: `CCOC(=O)/C(=C/Nc1ccc2c(c1)c1ccccc1n2CC)[N+](=O)[O-]`
// result 7.03

// query Please look at this molecule and report its pIC50: `CCOC(=O)C(=CNc1ccc2c(c1)c1ccccc1n2CC)C(=O)OCC`
// result 5.36
